Assay system: mNat2 (Mus musculus)
Construct: hexa-histidine tag (cleaved yes); made in house; host or cells: E. coli Rosetta(DE3)pLysS
Sequence (P50295 1-290): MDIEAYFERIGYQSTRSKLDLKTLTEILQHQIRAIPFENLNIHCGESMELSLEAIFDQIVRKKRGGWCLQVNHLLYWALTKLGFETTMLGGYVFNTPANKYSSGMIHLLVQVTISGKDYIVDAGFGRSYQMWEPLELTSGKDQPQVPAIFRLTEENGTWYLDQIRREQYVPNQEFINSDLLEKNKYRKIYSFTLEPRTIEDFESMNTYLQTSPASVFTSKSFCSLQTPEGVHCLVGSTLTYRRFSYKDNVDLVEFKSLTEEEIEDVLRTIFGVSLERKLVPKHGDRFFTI
Test method notes: Visible spectrum of compound in presence of mNat2
Format: binding
Conditions used: with mNat2, 20 mM Tris.HCl pH 8
Metric: λmax in presence of mNat2 (nm)
Expressed in nm, but write only the number.

Compound	λmax in presence of mNat2 / nm
Cc1cc(C)cc(NC2=C(N(C)S(=O)(=O)c3ccccc3)C(=O)c3ccccc3C2=O)c1	490
COS(=O)(=NC1=C(Nc2cc(C)cc(C)c2)C(=O)c2ccccc2C1=O)c1ccccc1 (stereo not shown)	548
Cc1cc(C)cc(NC2=C(NS(=O)(=O)c3ccccc3)C(=O)c3ccccc3C2=O)c1	625

Then this compound:
Reported mNat2 (Mus musculus) λmax in presence of mNat2 for item Cc1cc(C)cc(NC2=C(OS(=O)(=O)c3ccccc3)C(=O)c3ccccc3C2=O)c1 was 492

###

Assay system: mNat2 (Mus musculus)
Metric: pIC50
Expect pIC50 as a plain number equal to -log10 of the molar concentration.

Kindly note: mNat2 (Mus musculus), COS(=O)(=NC1=C(Nc2cc(C)cc(C)c2)C(=O)c2ccccc2C1=O)c1ccccc1 (centres unmarked) , pIC50 value reported: 4.84

###

Test method notes: Acid-base (pH) titration by visible spectra
Type: physicochemical
Conditions used: panel of buffered solutions at diverse pHs with 5% DMSO; 5% DMSO/95% H2O
Description: 5 μL of 1 in DMSO (final concentration 0.1 mM) was added to 95 μL of a panel of solutions buffered at diverse pHs in a flat-bottomed 96-well plate (Corning). Visible spectra of the samples were recorded from 800 to 350 nm on the FLUOstar Omega plate reader (BMG Labtech), then the λmax were determined for all spectra and plotted against pH. A sigmoidal titration curve was fitted using GraphPad®.
Metric: pKa

// field: pKa; key: Cc1cc(C)cc(NC2=C(NS(=O)(=O)c3ccccc3)C(=O)c3ccccc3C2=O)c1 [compound 1] ; value = ~9.2

###

Assay system: UniProt:P18440
Sequence (P18440 1-290): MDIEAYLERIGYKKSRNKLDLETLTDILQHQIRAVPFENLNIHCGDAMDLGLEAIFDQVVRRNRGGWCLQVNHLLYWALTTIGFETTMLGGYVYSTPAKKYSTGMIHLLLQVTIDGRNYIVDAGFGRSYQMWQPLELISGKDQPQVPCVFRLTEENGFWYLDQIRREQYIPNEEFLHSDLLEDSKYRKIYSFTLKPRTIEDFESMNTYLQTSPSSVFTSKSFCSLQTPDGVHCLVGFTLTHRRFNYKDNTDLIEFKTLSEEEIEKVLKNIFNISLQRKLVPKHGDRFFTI
Metric: pIC50
Just the number, please; pIC50 means minus log10 of the concentration in mol/L.

// field: pIC50; key: COS(=O)(=NC1=C(Nc2cc(C)cc(C)c2)C(=O)c2ccccc2C1=O)c1ccccc1 (stereo not shown) ; value = 5.44
